Experiment: Mean volume of distribution at steady state in Swiss albino male mice at 1 mg/kg per compound (administered iv in a mixture of 5 compounds to 3 mice) assessed by LCMS/MS.
Assay type: ADME, organism-based
Conditions: mouse, in vivo, read-out: Volume
QUANTITY: Vd (L/kg)

* COc1ccc(-c2c(C(C)C)nc3cnc(-c4cccc(C(F)(F)F)c4)cn23)cc1O | 5.13
* CC(C)c1nc2cnc(-c3ccc(F)c(S(F)(F)(F)(F)F)c3)cn2c1-c1ccc2[nH]ncc2c1F | 3.39
* COc1ccc(-c2c(C(C)C)nc3cnc(-c4ccc(F)c(C(F)(F)F)c4)cn23)cc1O | 3.75
* CCc1nc2cnc(-c3ccc(F)c(C(F)(F)C(F)(F)F)c3)cn2c1-c1c(F)cc(O)cc1F | 7.32
* Oc1cc(F)c(-c2cnc3cnc(-c4cccc(C(F)(F)F)c4)cn23)c(F)c1 | 0.918
* Oc1ccc(-c2cnc3cnc(-c4cccc(C(F)(F)F)c4)cn23)c(F)c1 | 1.33
* Cc1nc2cnc(-c3cccc(C(F)(F)F)c3)cn2c1-c1c(F)cc(O)cc1F | 1.8

----------
Let's look at some compounds and their measured EC50.
System: Schistosoma mansoni
Assay: Concentration required to kill 50% of 42 day old worms 5 days after drug treatment.
Format: functional, organism-based
Conditions: Puerto Rican, 120 h
QUANTITY: EC50 (nM)

- Fc1c(-c2c(C(F)(F)F)nc3cnc(-c4cccc(C(F)(F)F)c4)cn23)ccc2[nH]ncc12: 25.2
- Fc1ccc(-c2cn3c(-c4ccc5[nH]ncc5c4F)c(C(F)(F)F)nc3cn2)cc1C1CCC1: 45.8
- CC(C)c1cccc(-c2cn3c(-c4ccc(O)cc4)cnc3cn2)c1: 1340
- COc1c(O)cccc1-c1c(C(C)C)nc2cnc(-c3cccc(C(F)(F)F)c3)cn12: 1760

----------
Assay: Mean volume of distribution at steady state in Swiss albino male mice at 1 mg/kg per compound (administered iv in a mixture of 5 compounds to 3 mice) assessed by LCMS/MS.
Type: ADME, organism-based
Conditions: mouse, in vivo, read-out: Volume
Label criterion met when Vd is at or above 7 L/kg; otherwise label criterion not met.

• Cc1nc2cnc(-c3cccc(C(F)(F)C(F)(F)F)c3)cn2c1-c1c(F)cc(O)cc1F = criterion met
• Cc1c(-c2c(C(F)(F)F)nc3cnc(-c4ccc(F)c(C(F)(F)F)c4)cn23)ccc2[nH]ncc12 = criterion met
• CC(C)c1nc2cnc(-c3ccc(F)c(C(F)(F)F)c3)nc2n1-c1c(F)cc(O)cc1F = criterion met
• CC(C)c1nn2cnc(-c3cccc(C(F)(F)F)c3)cc2c1-c1c(F)cc(O)cc1F = criterion not met
• COc1ccc(-c2c(C(F)(F)F)nc3cnc(-c4cccc(C(F)(F)C(F)(F)F)c4)cn23)cc1O = criterion not met

----------
Assay: Mean plasma concentration at 4h in Swiss albino male mice at […] per compound (administered orally in a mixture of 5 compounds to 3 mice) assessed by LCMS/MS.
Assay type: ADME, organism-based
Details: mouse, po
Entries whose concentration at 4 h is below 300 ng/mL take Met; entries at or above 300 ng/mL take Not met.

- CCc1nc2cnc(-c3ccc(F)c(C(F)(F)F)c3)cn2c1-c1c(F)cc(O)cc1F: Met
- Fc1ccc(-c2cn3c(-c4ccc5[nH]ncc5c4F)c(C(F)(F)F)nc3cn2)cc1OC(F)(F)F: Not met
- Fc1c(-c2c(C(F)(F)F)nc3cnc(-c4cccc(C(F)(F)C(F)(F)F)c4)cn23)ccc2[nH]ncc12: Not met
- Cc1nc2cnc(-c3ccc(F)c(C(F)(F)F)c3)cn2c1-c1ccc(O)cc1F: Met
- COc1ccc(-c2c(C(C)C)nc3cnc(-c4ccnc(N(C)C)c4)cn23)cc1O: Met
- CC(C)c1nc2cnc(-c3ccc(F)c(C(F)(F)F)c3)cn2c1-c1ccc2[nH]ncc2c1: Not met
- CC(C)c1nc2cnc(-c3ccc(F)c(C(F)(F)F)c3)cn2c1-c1ccc2[nH]ncc2c1F: Not met
- CC(C)c1nn2cnc(-c3cccc(C(F)(F)F)c3)cc2c1-c1c(F)cc(O)cc1F: Met
- Fc1ccc(-c2cn3c(-c4ccc5[nH]ncc5c4F)c(C4CC4)nc3cn2)cc1C(F)(F)F: Not met
